Provenance of the data: ChEMBL document CHEMBL4680214

Assignment: determine reported Activity for the given compounds.
System: CCRF-CEM
Assay: Cell cycle arrest in human CCRF-CEM cells assessed as accumulation at G0/G1 phase at 5 times IC50 measured after 24 hrs by propidium iodide staining based flow cytometry (reference value: 35.2%)
Type: functional
Please respond with the number in % and leave the unit unwritten.

Answer with the recorded Activity of `O=c1c(O)c(-c2ccc(F)cc2)[nH]c2ccccc12` only.
45.9

Answer with the recorded Activity of `O=c1c(O)c(-c2ccccc2)[nH]c2cc(F)c(Sc3ccccc3)cc12` only.
58.2

Answer with the recorded Activity of `O=c1c(O)c(-c2ccccc2)[nH]c2cc(F)cc(F)c12` only.
26.6

Answer with the recorded Activity of `O=c1c(O)c(-c2cccc(F)c2)[nH]c2ccccc12` only.
52.6
